# Target Under Test: farnesyl transferase (Homo sapiens, UniProt P49354+P49356)
# Procedure Text: Farnesyl transferase inhibition, [3H]-farnesylation of biotinylated K-ras C-terminal peptide (SPA assay)
# Assay type: biochemical
# Condition Details: K-Ras substrate; 60 min at 37° C.; mean of two IC50 values; read-out: In vitro inhibitory activity (K-Ras) IC50
pIC50: −log10 of the molar value.
This listing pairs compounds with measured pIC50.
Assay Readout: pIC50

Compound: C=C(C(=O)N1C[C@@H]2[C@]3(c4ccc(OC(F)(F)F)cc4)CC[C@@H](c4ccccc43)[C@]2(C(=O)O)C1)c1ccccc1OC (racemic)
Target Under Test: farnesyl transferase (Homo sapiens, UniProt P49354+P49356)
Assay Readout: pIC50
Test Value: 7.01
--
Compound: C=C(C(=O)N1C[C@@H]2[C@]3(c4ccc(C(F)(F)F)cc4)CC[C@@H](c4ccccc43)[C@]2(C(=O)O)C1)c1ccccc1OC (single isomer, unassigned) [Example 41]
Target Under Test: farnesyl transferase (Homo sapiens, UniProt P49354+P49356)
Assay Readout: pIC50
Test Value: 8.05
--
Compound: C=C(C(=O)N1C[C@H]2[C@@]3(c4ccc(C)cc4)CC[C@H](c4ccccc43)[C@@]2(C(=O)NCc2ccccc2)C1)c1ccccc1OC (relative stereo)
Target Under Test: farnesyl transferase (Homo sapiens, UniProt P49354+P49356)
Assay Readout: pIC50
Test Value: 6.85
--
Compound: C=C(C(=O)N1C[C@H]2[C@@]3(c4ccc(C)cc4)CC[C@H](c4ccccc43)[C@@]2(C(=O)NN(C)c2ccccc2)C1)c1ccccc1OC (relative stereo)
Target Under Test: farnesyl transferase (Homo sapiens, UniProt P49354+P49356)
Assay Readout: pIC50
Test Value: 7.27
--
Compound: C=C(C(=O)N1C[C@@H]2[C@]3(c4ccc5c(c4)OCCO5)CC[C@@H](c4ccccc43)[C@]2(C(=O)O)C1)c1ccccc1OC (racemic)
Target Under Test: farnesyl transferase (Homo sapiens, UniProt P49354+P49356)
Assay Readout: pIC50
Test Value: 6.97

---

# Target Under Test: farnesyl transferase (Homo sapiens, UniProt P49354+P49356)
# Procedure Text: Farnesyl transferase inhibition, [3H]-farnesylation of biotinylated K-ras C-terminal peptide (SPA assay)
# Assay type: biochemical
# Condition Details: K-Ras substrate; 60 min at 37° C.; mean of two IC50 values; read-out: In vitro inhibitory activity (K-Ras) IC50
pIC50: −log10 of the molar value. Counter-ions that a name gives are not always drawn.

Compound: C=C(C(=O)N1C[C@H]2[C@@]3(c4ccc(OC)cc4)CC[C@H](c4ccccc43)[C@@]2(C(=O)NCc2cccnc2)C1)c1ccccc1OC (relative stereo)
Target Under Test: farnesyl transferase (Homo sapiens, UniProt P49354+P49356)
pIC50: 6.61
--
Compound: C=C(C(=O)N1C[C@H]2[C@@]3(c4ccc(C)cc4)CC[C@H](c4ccccc43)[C@@]2(C(=O)NCc2cccnc2)C1)c1ccccc1OC (single isomer, unassigned) [Example 18]
Target Under Test: farnesyl transferase (Homo sapiens, UniProt P49354+P49356)
pIC50: 7.30
--
Compound: C=C(C(=O)N1C[C@@H]2[C@]3(c4ccc(Br)cc4)CC[C@@H](c4ccccc43)[C@]2(C(=O)OC)C1)c1ccccc1OC (racemic)
Target Under Test: farnesyl transferase (Homo sapiens, UniProt P49354+P49356)
pIC50: 6.64
--
Compound: COc1ccccc1CC(=O)N1C[C@H]2[C@@]3(c4ccc(SC)cc4)CC[C@H](c4ccccc43)[C@@]2(C(=O)O)C1 (relative stereo)
Target Under Test: farnesyl transferase (Homo sapiens, UniProt P49354+P49356)
pIC50: 7.30
--
Compound: COc1ccccc1CC(=O)N1C[C@@H]2[C@]3(c4cc(C)c(C)c(C)c4)CC[C@@H](c4ccccc43)[C@]2(C(=O)O)C1 (racemic)
Target Under Test: farnesyl transferase (Homo sapiens, UniProt P49354+P49356)
pIC50: 7.06
--
Compound: C=C(C(=O)N1C[C@H]2[C@@]3(c4ccc(N(C)C)cc4)CC[C@H](c4ccccc43)[C@@]2(C(=O)OC)C1)c1ccccc1OC (relative stereo)
Target Under Test: farnesyl transferase (Homo sapiens, UniProt P49354+P49356)
pIC50: 6.25
--
Compound: C=C(C(=O)N1C[C@@H]2[C@]3(c4ccc(C(F)(F)F)cc4)CC[C@@H](c4ccccc43)[C@]2(C(=O)NNc2ccccc2)C1)c1ccccc1OC (relative stereo)
Target Under Test: farnesyl transferase (Homo sapiens, UniProt P49354+P49356)
pIC50: 6.43
--
Compound: C=C(C(=O)N1C[C@@H]2[C@]3(c4ccc(C)cc4)CC[C@@H](c4ccccc43)[C@]2(C(=O)NS(=O)(=O)c2ccccc2)C1)c1ccccc1OC (racemic)
Target Under Test: farnesyl transferase (Homo sapiens, UniProt P49354+P49356)
pIC50: 6.71
--
Compound: C=C(C(=O)N1C[C@@H]2[C@]3(c4cccc(N)c4)CC[C@@H](c4ccccc43)[C@]2(C(=O)OC)C1)c1ccccc1OC (racemic) [Example 93, hydrochloride]
Target Under Test: farnesyl transferase (Homo sapiens, UniProt P49354+P49356)
pIC50: 6.10
--
Compound: C=C(C(=O)N1C[C@@H]2[C@]3(c4ccc(C(F)(F)F)cc4)CC[C@@H](c4ccccc43)[C@]2(C(=O)OC)C1)c1ccccc1OC (racemic)
Target Under Test: farnesyl transferase (Homo sapiens, UniProt P49354+P49356)
pIC50: 6.56
--
Compound: C=C(C(=O)N1C[C@H]2[C@@]3(c4ccc(C)cc4)CC[C@H](c4ccccc43)[C@@]2(C(=O)NCc2cccnc2)C1)c1ccccc1OC (single isomer, unassigned) [Example 19]
Target Under Test: farnesyl transferase (Homo sapiens, UniProt P49354+P49356)
pIC50: 6.74

---

# Target Under Test: farnesyl transferase (Homo sapiens, UniProt P49354+P49356)
# Procedure Text: Farnesyl transferase inhibition, [3H]-farnesylation of biotinylated K-ras C-terminal peptide (SPA assay)
# Format: biochemical
# Condition Details: K-Ras substrate; 60 min at 37° C.; mean of two IC50 values; read-out: In vitro inhibitory activity (K-Ras) IC50
Output rule met for records whose IC50 is lower than 80 nM, rule not met for records at or above 80 nM.

Molecule: C=C(C(=O)N1C[C@@H]2[C@]3(c4ccc5c(c4)OCCO5)CC[C@@H](c4ccccc43)[C@]2(C(=O)OC)C1)c1ccccc1OC (racemic)
Target Under Test: farnesyl transferase (Homo sapiens, UniProt P49354+P49356)
Classification: rule not met
//
Molecule: C=C(C(=O)N1C[C@H]2[C@@]3(c4ccc(C)cc4)CC[C@H](c4ccccc43)[C@@]2(C(=O)NNc2ccc(OC)cc2)C1)c1ccccc1OC (relative stereo)
Target Under Test: farnesyl transferase (Homo sapiens, UniProt P49354+P49356)
Classification: rule met
//
Molecule: COc1ccccc1CC(=O)N1C[C@@H]2[C@]3(c4ccc(C(C)C)cc4)CC[C@@H](c4ccccc43)[C@]2(C(=O)O)C1 (racemic)
Target Under Test: farnesyl transferase (Homo sapiens, UniProt P49354+P49356)
Classification: rule not met
//
Molecule: C=C(C(=O)N1C[C@@H]2[C@]3(c4ccc(Br)cc4)CC[C@@H](c4ccccc43)[C@]2(C(=O)O)C1)c1ccccc1OC (racemic)
Target Under Test: farnesyl transferase (Homo sapiens, UniProt P49354+P49356)
Classification: rule met
//
Molecule: C=C(C(=O)N1C[C@H]2[C@@]3(c4ccc(C)cc4)CC[C@H](c4ccccc43)[C@@]2(C(=O)NN(C)C)C1)c1ccccc1OC (relative stereo)
Target Under Test: farnesyl transferase (Homo sapiens, UniProt P49354+P49356)
Classification: rule not met
//
Molecule: C=C(C(=O)N1C[C@@H]2[C@]3(c4ccc5c(c4)OCCO5)CC[C@@H](c4ccccc43)[C@]2(C(=O)NCc2cccnc2)C1)c1ccccc1OC (single isomer, unassigned)
Target Under Test: farnesyl transferase (Homo sapiens, UniProt P49354+P49356)
Classification: rule not met
//
Molecule: COc1cccc([C@]23CC[C@H](c4ccccc42)[C@@]2(C(=O)O)CN(C(=O)Cc4ccccc4OC)C[C@@H]32)c1 (relative stereo)
Target Under Test: farnesyl transferase (Homo sapiens, UniProt P49354+P49356)
Classification: rule not met
//
Molecule: C=C(C(=O)N1C[C@@H]2[C@]3(c4ccc(F)cc4)CC[C@@H](c4ccccc43)[C@]2(C(=O)OC)C1)c1ccccc1OC (racemic)
Target Under Test: farnesyl transferase (Homo sapiens, UniProt P49354+P49356)
Classification: rule not met
//
Molecule: C=C(C(=O)N1C[C@@H]2[C@]3(c4ccc(C(F)(F)F)cc4)CC[C@@H](c4ccccc43)[C@]2(C(=O)O)C1)c1ccccc1OC (racemic) [Example 40]
Target Under Test: farnesyl transferase (Homo sapiens, UniProt P49354+P49356)
Classification: rule not met
//
Molecule: C=C(C(=O)N1C[C@@H]2[C@]3(c4ccc(OC)cc4)CC[C@@H](c4ccccc43)[C@]2(C(=O)O)C1)c1ccccc1OC (racemic)
Target Under Test: farnesyl transferase (Homo sapiens, UniProt P49354+P49356)
Classification: rule met
//
Molecule: C=C(C(=O)N1C[C@@H]2[C@]3(c4ccc(C)cc4)CC[C@@H](c4ccccc43)[C@]2(C(=O)NOC)C1)c1ccccc1OC (racemic)
Target Under Test: farnesyl transferase (Homo sapiens, UniProt P49354+P49356)
Classification: rule not met
